Target: T1, hAMY3R (human, UniProt P30988)
T1 sequence 1: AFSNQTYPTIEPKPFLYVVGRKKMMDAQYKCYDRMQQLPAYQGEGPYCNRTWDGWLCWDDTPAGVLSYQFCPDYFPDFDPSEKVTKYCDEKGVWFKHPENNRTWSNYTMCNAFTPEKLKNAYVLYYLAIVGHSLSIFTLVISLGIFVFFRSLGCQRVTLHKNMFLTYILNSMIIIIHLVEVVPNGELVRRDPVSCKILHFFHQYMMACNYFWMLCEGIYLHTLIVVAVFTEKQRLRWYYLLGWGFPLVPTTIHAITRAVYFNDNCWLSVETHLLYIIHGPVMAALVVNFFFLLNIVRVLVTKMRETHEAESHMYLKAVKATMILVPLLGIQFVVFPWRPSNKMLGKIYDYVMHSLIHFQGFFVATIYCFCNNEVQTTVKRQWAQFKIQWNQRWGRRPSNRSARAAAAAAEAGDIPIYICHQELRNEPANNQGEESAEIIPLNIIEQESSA
T1 sequence 2: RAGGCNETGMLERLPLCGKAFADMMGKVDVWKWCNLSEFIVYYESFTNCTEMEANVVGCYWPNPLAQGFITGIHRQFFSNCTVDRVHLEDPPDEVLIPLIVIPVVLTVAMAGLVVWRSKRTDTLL
Test: cell-based or functional assay
Numbered stars: 1 amine (or outer) side, 2 acyl side, 3 side chain; on linkers, the order of the positions; unused ones are H or OH. Bridge positions count the residues as written; N and C are the ends. Square brackets hold non-standard residues; d marks the D form. Ends that are not written are not given here. * marks the point of attachment. C20 diacid = O=C(O)CCCCCCCCCCCCCCCCCCC(=O)*; γGlu = O=C(O)[C@H](CCC(=O)[*:2])N[*:1]; Hyp = O=C(O)[C@@H]1C[C@@H](O)CN1; Cit = NC(=O)NCCC[C@H](N)C(=O)O
I'd be grateful if you could share measured hAMY3R EC50 (cAMP) for these entries.
Could you give me the number in nM? Just the number is fine.

Determine its reported hAMY3R EC50 (cAMP): {C20 diacid-γGlu}-KCNTATCTVQRLAYQIYQFTDKDKDNVAPPTNVGSNG[Hyp]-NH2 (disulfide 2-7 (inferred); ends not checked) [SEQ ID NO: 47] 0.011

Determine its reported hAMY3R EC50 (cAMP): KCNTSTCTVARLADQITQFSNKDKAQVSPPTEVGPNS[Hyp]-NH2 (disulfide 2-7 (inferred); ends not checked) [SEQ ID NO: 8] 0.006

Determine its reported hAMY3R EC50 (cAMP): GCRFGTCTVQWLAHQIYQFTDKDKDNVAPRTKISPQG[Hyp]-NH2 (disulfide 2-7 (inferred); ends not checked) [SEQ ID NO: 350] 0.044

Determine its reported hAMY3R EC50 (cAMP): GCRTGTCTVQRLAHQIYQFTNKDKDNVAPRSKISPQH[Hyp]-NH2 (disulfide 2-7 (inferred); ends not checked) [SEQ ID NO: 219] 0.171

Determine its reported hAMY3R EC50 (cAMP): GCRFGTCTVQRLAHQIYQFTDKDKDNVAPRTKVGPQG[Hyp]-NH2 (disulfide 2-7 (inferred); ends not checked) [SEQ ID NO: 45] 0.011

Determine its reported hAMY3R EC50 (cAMP): KCNTATCTVQWLAHQIYQFADKDKDNVAPPTNVGSNG[Hyp]-NH2 (disulfide 2-7 (inferred); ends not checked) [SEQ ID NO: 313] 0.004

Determine its reported hAMY3R EC50 (cAMP): GCRFGTCTVQ[Cit]LAHQIYQFTDKDKDNVAPRTNIGPQG[Hyp]-NH2 (disulfide 2-7 (inferred); ends not checked) [SEQ ID NO: 260] 0.011

Determine its reported hAMY3R EC50 (cAMP): GCRTGTCTVQRLAHQIYQFTDKDKDNVAPRTNVGPQGY [SEQ ID NO: 109] 0.02

Determine its reported hAMY3R EC50 (cAMP): GCRFGTCTVQWLAHFLYQFTDKDKDNVAPRTNVGPQGY [SEQ ID NO: 326] 0.053

Determine its reported hAMY3R EC50 (cAMP): KCNTATCATQRLANFLVHSSNNFGAILPRTKVGSNGY [SEQ ID NO: 19] 0.008
